Test system: HepG2
Assay Notes: GSK_TCMDC: Percent inhibition of human HepG2 cell line. Test compounds present at 10uM.
Format: functional
Label 1 when Inhibition is strictly below 10%; at or above that, label -1.

• Cc1nc(N)nc(N)c1-c1cccc(Cl)c1 = -1
• COc1cccc(C(=O)Nc2sc3c(c2C(N)=O)CCCC3)c1OC = 1
• FC(F)(F)c1ccc2[nH]c(-c3ccc(-c4cccc(CNCCc5cccnc5)c4)s3)nc2c1.O=C(O)C(F)(F)F = -1
• CN(C)CCOc1cc(NC(=O)Nc2ccc3c(c2)CCCC3=O)ccc1I = -1
• CC(=O)Nc1ccc(NC(=O)c2cc(-c3ccc(C)cc3O)n[nH]2)cc1 = 1
• COc1cc(Nc2ccnc3cc(-c4nccs4)ccc23)ccc1OCCCc1nc2ccccc2[nH]1.Cl = -1
• CC1(C)N=C(N)N=C(N)N1c1ccc(Oc2ccccc2)cc1.Cl = -1
• CC1CN(c2cnn(Cc3ccc(NC(=O)Nc4ccc(-c5ccccc5)cc4)cc3)c(=O)c2Cl)CC(C)N1.O=C(O)C(F)(F)F (stereo not drawn) = -1
• O=C(/C=C/c1ccc(Cl)c(Cl)c1)NCCCCCN1CCCN(C(=O)Nc2ccc(F)c(Cl)c2)CC1 = -1
• Cn1cncc1-c1ccc2ncnc(Nc3ccc(OCc4ccccc4)cc3)c2c1 = 1
• COc1ccc(C(=O)N2CCC3(CC2)C(=O)N(CC(=O)NCC2CCCCC2)CN3c2ccccc2)cc1 = -1
• N#Cc1ccc(S(=O)(=O)N2C(c3cccc([N+](=O)[O-])c3)C(C(=O)c3ccccc3)N(C3CCCCC3)C2c2cccc([N+](=O)[O-])c2)cc1 (stereo not drawn) = -1
• O=C(NC1CCN(Cc2ccccc2)CC1)c1cccc(-c2cc3cc(Cl)c(Cl)cc3[nH]2)c1.O=C(O)C(F)(F)F = -1
• O=C(NCCc1ccccc1)N(Cc1cccc(-c2ccc(CNCc3ccc4c(c3)OCO4)cc2)c1)C1CCN(Cc2ccccc2)CC1.O=C(O)C(F)(F)F = -1
• NC(=O)c1cccc(C(=O)Nc2cccc(-c3cccc(-c4nc5ccccc5[nH]4)c3)c2)c1 = -1
• CCN(CC)CC(O)CNc1c2ccc([N+](=O)[O-])cc2nc2cc(OC)c(OC)cc12.Cl (stereo not drawn) = -1
• COC(=O)c1ccc(Nc2nccc(Nc3ccc(Oc4ccccc4)cc3)n2)cc1.Cl = 1

Reference for the values: ChEMBL document CHEMBL1157539
